# Test system: PC-14
# method: relative viability (nuclei count vs DMSO), 5 days (fraction); higher = more cells survive
# assayContext: first compound 0.03162 µM
Listing: relative viability of selected compounds

Example entries and their recorded answers appear below.
Cc1cn(-c2cc(NC(=O)c3ccc(C)c(Nc4nccc(-c5cccnc5)n4)c3)cc(C(F)(F)F)c2)cn1 [Nilotinib] + Nc1nc2[nH]cc(CCc3ccc(C(=O)N[C@@H](CCC(=O)O)C(=O)O)cc3)c2c(=O)[nH]1 [Pemetrexed] (partner 0.2 µM): 0.0585
Cc1cn(-c2cc(NC(=O)c3ccc(C)c(Nc4nccc(-c5cccnc5)n4)c3)cc(C(F)(F)F)c2)cn1 [Nilotinib] + O=C(c1cc(Cc2n[nH]c(=O)c3ccccc23)ccc1F)N1CCN(C(=O)C2CC2)CC1 [Olaparib] (partner 8 µM): 0.264
Cc1cn(-c2cc(NC(=O)c3ccc(C)c(Nc4nccc(-c5cccnc5)n4)c3)cc(C(F)(F)F)c2)cn1 [Nilotinib] + NC(=O)Nc1cc(-c2cccc(F)c2)sc1C(=O)N[C@H]1CCCNC1 [AZD7762] (partner 0.2 µM): 0.305
Cc1cn(-c2cc(NC(=O)c3ccc(C)c(Nc4nccc(-c5cccnc5)n4)c3)cc(C(F)(F)F)c2)cn1 [Nilotinib] + CC(=O)Nc1cccc(-n2c(=O)n(C3CC3)c(=O)c3c(Nc4ccc(I)cc4F)n(C)c(=O)c(C)c32)c1 [Trametinib] (partner 0.02 µM): 0.448

stdin: Tell me the measured relative viability of Cc1cn(-c2cc(NC(=O)c3ccc(C)c(Nc4nccc(-c5cccnc5)n4)c3)cc(C(F)(F)F)c2)cn1 [Nilotinib] + Nc1ncn([C@H]2C[C@H](O)[C@@H](CO)O2)c(=O)n1 [Decitabine] (partner 2 µM) , please.
stdout: 0.304

====

# Test system: SK-MES-1
# method: relative viability (nuclei count vs DMSO), 5 days (fraction); higher = more cells survive
# assayContext: first compound 0.03162 µM
parameterMeasured: relative viability
Write the number on its own, no unit after it.

Cc1cn(-c2cc(NC(=O)c3ccc(C)c(Nc4nccc(-c5cccnc5)n4)c3)cc(C(F)(F)F)c2)cn1 [Nilotinib] + CC(=O)Nc1cccc(-n2c(=O)n(C3CC3)c(=O)c3c(Nc4ccc(I)cc4F)n(C)c(=O)c(C)c32)c1 [Trametinib] (partner 0.02 µM): 0.437
Cc1cn(-c2cc(NC(=O)c3ccc(C)c(Nc4nccc(-c5cccnc5)n4)c3)cc(C(F)(F)F)c2)cn1 [Nilotinib] + Cc1nc(Nc2ncc(C(=O)Nc3c(C)cccc3Cl)s2)cc(N2CCN(CCO)CC2)n1 [Dasatinib] (partner 0.075 µM): 0.29

stdin: Tell me the measured relative viability of Cc1cn(-c2cc(NC(=O)c3ccc(C)c(Nc4nccc(-c5cccnc5)n4)c3)cc(C(F)(F)F)c2)cn1 [Nilotinib] + CS(=O)(=O)CCNCc1ccc(-c2ccc3ncnc(Nc4ccc(OCc5cccc(F)c5)c(Cl)c4)c3c2)o1 [Lapatinib] (partner 2 µM) , please.
stdout: 0.541

stdin: Tell me the measured relative viability of Cc1cn(-c2cc(NC(=O)c3ccc(C)c(Nc4nccc(-c5cccnc5)n4)c3)cc(C(F)(F)F)c2)cn1 [Nilotinib] + Nc1ncn([C@H]2C[C@H](O)[C@@H](CO)O2)c(=O)n1 [Decitabine] (partner 2 µM) , please.
stdout: 0.617

stdin: Tell me the measured relative viability of Cc1cn(-c2cc(NC(=O)c3ccc(C)c(Nc4nccc(-c5cccnc5)n4)c3)cc(C(F)(F)F)c2)cn1 [Nilotinib] + Cc1cc(Nc2cc(N3CCN(C)CC3)nc(Sc3ccc(NC(=O)C4CC4)cc3)n2)n[nH]1 [Tozasertib] (partner 0.1 µM) , please.
stdout: 0.572

stdin: Tell me the measured relative viability of Cc1cn(-c2cc(NC(=O)c3ccc(C)c(Nc4nccc(-c5cccnc5)n4)c3)cc(C(F)(F)F)c2)cn1 [Nilotinib] + CC(=O)c1c(C)c2cnc(Nc3ccc(N4CCNCC4)cn3)nc2n(C2CCCC2)c1=O [Palbociclib] (partner 0.5 µM) , please.
stdout: 0.377
